Test system: CAKI-1
Test: NCI tumour cell line growth inhibition, 48 h
Calls of active or inactive are those of the source. Rule as the data show it: active = GI50 up to about 1.1 µM and inactive = higher.
Measured Parameter: GI50

Task: Identify GI50 associated with the molecule Cc1cccc(N2C(=O)C(=O)C(c3nc4ccccc4s3)/C(=N/NC(=S)NN)C2=O)c1C (stereo unspecified)
Output: > 100 µM (inactive)

Task: Identify GI50 associated with the molecule `CC(C)/C(Cl)=N/OC(=O)Nc1cccc(C(F)(F)F)c1`
Output: 1.75 µM (inactive)

Task: Identify GI50 associated with the molecule `O=c1[nH]nc(Cc2ccc(Cl)cc2)n1/N=C/c1ccco1`
Output: > 100 µM (inactive)

Task: Identify GI50 associated with the molecule Nc1ncnc2c1ncn2C1OC(COP(=O)(O)CP(=O)(O)O)C(O)C1O (stereo unspecified)
Output: > 100 µM (inactive)

Task: Identify GI50 associated with the molecule CCCC(O)c1cn(-c2cccc(S(=O)(=O)O)c2)nn1 (stereo unspecified)
Output: > 100 µM (inactive)

Task: Identify GI50 associated with the molecule NCCCCCC(CCN)SCC1OC(n2cnc3c(N)ncnc32)C(O)C1O (stereo unspecified)
Output: 411 µM (inactive)

###

Test system: NCI-H522
Assay: NCI tumour cell line growth inhibition, 48 h
Active and inactive are the calls of the source. Rule as the data show it: active = GI50 up to about 1.1 µM and inactive = higher.
Field 'call' accepts Y (active), N (inactive)

Task: Test call for this compound, please: `CCOC(=O)/C(C#N)=C\C=C1/C=CN=C2NCCN21`
Output: N

Task: Test call for this compound, please: `O=C1CSC(/C(=C/c2ccccc2)c2nc3ccccc3[nH]2)=N1`
Output: N

Task: Test call for this compound, please: CC(C)(C)OC(=O)NCCCCC(N)C(N)=O (centres undefined)
Output: N

Task: Test call for this compound, please: Nc1nc(Cl)cc(NCC2(CO)CC(CCCc3ccccc3)C2)n1 (centres undefined)
Output: N

Task: Test call for this compound, please: `COc1ccc(/C=N/NC(=S)Nc2cc(C)ccc2OC)cc1`
Output: N

Task: Test call for this compound, please: CCCC(O)c1cn(-c2cccc(S(=O)(=O)O)c2)nn1 (centres undefined)
Output: N

Task: Test call for this compound, please: `CC(C)(C)c1cc(Br)c(O)c(CN(Cc2cc(C(C)(C)C)cc(Br)c2O)C2CCCCC2)c1`
Output: N

Task: Test call for this compound, please: `Clc1ncnc(Cl)c1Cl`
Output: N

Task: Test call for this compound, please: CN(C)C(=O)Oc1ccc[n+](C)c1 [PYRIDOSTIGMINE BROMIDE]
Output: N

Task: Test call for this compound, please: `CC(C)OC(=O)c1ccc(NCc2cc(O)ccc2O)cc1`
Output: Y

Task: Test call for this compound, please: `Clc1nc(Cl)c(-c2ccccc2)c(Cl)n1`
Output: N

Task: Test call for this compound, please: `NC(=O)C(=O)n1ncc(Cl)c(Cl)c1=O`
Output: N

Task: Test call for this compound, please: `CCC1=[N+](CC)CCN1CC`
Output: N

Task: Test call for this compound, please: `C[n+]1c2ccccc2c(CNCC(=O)O)c2ccccc21`
Output: Y

Task: Test call for this compound, please: `CC(=O)Nc1ccc2c(C)c3c(nc2n1)[nH]c1ccccc13`
Output: N

Task: Test call for this compound, please: `Cc1c(-c2ccccc2)nn2cc(-c3ccccc3)nnc12`
Output: N

Task: Test call for this compound, please: `COc1ccc(-c2nc3c(nc2-c2ccc(OC)cc2)N(C)S(=O)(=O)N=C3N)cc1`
Output: N

Task: Test call for this compound, please: `COc1ccc2c(c1)c1c3c(ccc4ncn2c43)N(CCO)CCN=1`
Output: Y

Task: Test call for this compound, please: COc1c(O)c(C=O)c2c(O)c(-c3c(C)cc4c(C(C)C)c(OC)c(O)c(C=O)c4c3O)c(C)cc2c1C(C)C [6,6'-METHOXYGOSSYPOL]
Output: N

###

Test system: SNB-19
Test: NCI tumour cell line growth inhibition, 48 h
Calls of active or inactive are those of the source. Cut-off read from the data, not from the text of the source: active = GI50 up to about 1.1 µM and inactive = higher.
I'd be grateful if you could share measured GI50 for these entries.

Task: Identify GI50 associated with the molecule `O=c1cc(CN2CCCCC2)nc2ccc3c(O)cc(CN4CCCCC4)nc3n12`
Output: > 100 µM (inactive)

Task: Identify GI50 associated with the molecule `O=C1CN(c2ccccc2)C(=O)CN1NCNN1CC(=O)N(c2ccccc2)CC1=O`
Output: > 100 µM (inactive)

Task: Identify GI50 associated with the molecule Cc1cccc2c1CCC21OC(=O)c2c1ccc1ccccc21 (configuration not stated)
Output: 90.4 µM (inactive)

Task: Identify GI50 associated with the molecule `Cc1nc2c(n1C)C(=O)c1nc(CBr)[nH]c(=O)c1C2=O`
Output: > 100 µM (inactive)

Task: Identify GI50 associated with the molecule `CC(C)(C)NNC(=O)/C(=C/c1ccc([N+](=O)[O-])cc1)NC(=O)c1ccccc1`
Output: > 100 µM (inactive)

Task: Identify GI50 associated with the molecule COc1ccc(C(O)CNC(=O)c2ccccc2)cc1 (configuration not stated)
Output: > 100 µM (inactive)

Task: Identify GI50 associated with the molecule O=C(CC1Sc2ccccc2NC1=O)Nc1ccccc1[N+](=O)[O-] (configuration not stated)
Output: > 100 µM (inactive)

Task: Identify GI50 associated with the molecule `CN(C)c1ccc2c(c1)oc(=O)c1ccccc12`
Output: 14.3 µM (inactive)

Task: Identify GI50 associated with the molecule `CCc1c2c([nH]c(=S)c1C#N)CCC2`
Output: > 100 µM (inactive)

Task: Identify GI50 associated with the molecule `CC(C)(C)SC1=CCC[C@@H](P(=O)(c2ccccc2)c2ccccc2)[C@@H]2CCC[C@@H]12`
Output: 16.1 µM (inactive)

Task: Identify GI50 associated with the molecule `CC(C)OC(=O)c1ccc(NCc2cc(O)ccc2O)cc1`
Output: 3.3 µM (inactive)

Task: Identify GI50 associated with the molecule `Cc1nc(N)sc1/N=N/c1ccccc1Br`
Output: > 44.5 µM (inactive)

Task: Identify GI50 associated with the molecule CC(=O)C(C(=O)c1ccc(C)cc1)[C@H]1OC(C)(C)O[C@H]1[C@H]1COC(C)(C)O1 (some centres not stated)
Output: 9.95 µM (inactive)

Task: Identify GI50 associated with the molecule `CN(C)CCn1c(=O)oc2cc(C(=O)CN3CCOCC3)ccc21`
Output: > 100 µM (inactive)

Task: Identify GI50 associated with the molecule COc1cccc(CC2Cc3ccccc3CC(=O)N2)c1 (configuration not stated)
Output: 90.8 µM (inactive)

Task: Identify GI50 associated with the molecule `COc1ccc(-c2nc3c(nc2-c2ccc(OC)cc2)N(C)S(=O)(=O)N=C3N)cc1`
Output: 28.1 µM (inactive)

Task: Identify GI50 associated with the molecule `O=C(CSCC(=O)N/N=C/c1ccc(F)cc1)N/N=C/c1ccc(F)cc1`
Output: > 100 µM (inactive)

Task: Identify GI50 associated with the molecule CC1CC[C@]2(C(=O)O)CCC3(C)C(=C2[C@H]1C)C=CC1[C@@]2(C)CC[C@H](O)C(C)(C)C2CC[C@]13C (some centres not stated)
Output: 30.5 µM (inactive)

Task: Identify GI50 associated with the molecule CCOC(=O)c1c(N)sc2c1C(C)(C(=O)OCC)CC2 (configuration not stated)
Output: > 100 µM (inactive)

Task: Identify GI50 associated with the molecule COC(=O)N1CC2(CO)C3CC=C(C(=O)Nc4ccccc4Br)C2C1C3Br (configuration not stated)
Output: > 50 µM (inactive)

Task: Identify GI50 associated with the molecule O=C(OCCO)C1CC2CC1C1(C2)OCCO1 (configuration not stated)
Output: > 100 µM (inactive)

Task: Identify GI50 associated with the molecule `COc1ccc(/[N+]([O-])=C/c2ccc(OC(=S)S)c(OC)c2)cc1`
Output: 43.6 µM (inactive)

###

I'd be grateful if you could share measured GI50 for these entries.
System: SN12C
Test: NCI tumour cell line growth inhibition, 48 h
Active and inactive are the calls of the source. No stated cut-off is given here; in the data, active = GI50 up to about 1.1 µM and inactive = higher.

Task: Identify GI50 associated with the compound O=C(OCCO)C1CC2CC1C1(C2)OCCO1 (stereo unspecified)
Output: > 100 µM (inactive)

Task: Identify GI50 associated with the compound `O=C(N/N=C/c1ccccc1)c1c(-c2cccnc2)cnc2ccccc12`
Output: > 100 µM (inactive)

Task: Identify GI50 associated with the compound `CC(C)/C(Cl)=N\OC(=O)Nc1cccc(F)c1`
Output: 16.5 µM (inactive)

Task: Identify GI50 associated with the compound CC(=O)O[C@H]1CCc2c(cc(N)c3c2C(=O)C[C@]2(C)C([C@H](C)CCCC(C)C)CCC32C)C1(C)C (stereo partly specified)
Output: > 100 µM (inactive)

Task: Identify GI50 associated with the compound CCOC(=O)[C@H]1Nc2ccc(O)cc2C2c3ccccc3CC21 (stereo partly specified)
Output: 87.1 µM (inactive)

Task: Identify GI50 associated with the compound `O=c1c(-c2ccccc2)c2oc(c1-c1ccccc1)CSCc1cccc(c1)CSC2`
Output: 49.1 µM (inactive)
